Reported pIC50 values follow for various compounds
targetDesc: UniProt:P33533
experimentSummary: Inhibition of TAN67-
Assay type: biochemical
reportedConditions: read-out: IC50, inhibition of TAN67-stimulated (10 μmol/L) [35S]GTPγS-binding; midbrain membranes, ethanol-trained rats given SoRI-9409-vehicle prior to yohimbine (2 mg/kg I.P.)
The quantity pIC50 is defined as the negative base-10 logarithm of the molar concentration.

O=C1/C(=C/c2ccccc2)C[C@@]2(O)[C@H]3Cc4ccc(O)c5c4[C@@]2(CCN3CC2CC2)[C@H]1O5 [BNTX]; 7.43

From here, focus on the item given below.
pIC50 lookup needed for Oc1ccc2c3c1O[C@H]1c4ncc(-c5ccc(Cl)cc5)cc4C[C@@]4(O)[C@@H](C2)N(CC2CC2)CC[C@]314 [SoRI-9409] , thanks.
7.66

====

targetDesc: DOP-R1 (Rattus norvegicus)
Sequence (P33533 whole entry): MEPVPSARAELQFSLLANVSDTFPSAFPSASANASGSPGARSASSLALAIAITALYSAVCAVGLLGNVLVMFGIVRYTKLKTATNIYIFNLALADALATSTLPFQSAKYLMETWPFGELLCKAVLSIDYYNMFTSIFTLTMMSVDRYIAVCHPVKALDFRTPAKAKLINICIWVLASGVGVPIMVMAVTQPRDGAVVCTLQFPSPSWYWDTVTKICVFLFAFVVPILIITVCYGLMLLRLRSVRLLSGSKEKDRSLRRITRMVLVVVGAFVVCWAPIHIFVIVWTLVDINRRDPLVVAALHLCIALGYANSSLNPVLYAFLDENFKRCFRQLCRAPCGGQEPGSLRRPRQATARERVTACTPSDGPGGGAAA
experimentSummary: TAN67-stimulated [35S]GTPγS binding in rat brain membranes
Type: biochemical
reportedConditions: read-out: Mean (± SEM) EC50 for TAN67 Stimulation, Striatum; striatal membranes, ethanol-trained rats, SoRI-9409 (5 mg/kg I.P.)/Yohimbine-vehicle
assayReadout: EC50

EC50 lookup needed for Br.Br.CN1CC[C@]2(c3cccc(O)c3)Cc3nc4ccccc4cc3C[C@H]2C1 [TAN67, SB 205607 dihydrobromide] , thanks.
> 100 µM
